System: 292921-168-R-J2-PDC complex spheroid growth;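 further: spheroids exposed to compounds for seven days after three days of growth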
Assay: Anticancer human tumor 292921-168-R-J2-PDC patient-derived pancreatic carcinoma cell line growth inhibition [AhR]
Conditions: curve of first compound; second compound 3.16 µM
Endpoint: IC50

These solved cases illustrate the format of a correct answer.
Molecule	Endpoint result
CCN(c1cc(-c2ccc(CN3CCOCC3)cc2)cc(C(=O)NCc2c(C)cc(C)[nH]c2=O)c1C)C1CCOCC1 + CC(CO)NC(=O)c1cc(-c2ccc(Cl)cc2)nn(-c2cnn(C)c2)c1=O	> 3 µM
Nc1ncn(C2CC(O)C(CO)S2)c(=O)n1 (stereo not drawn) + Cc1ccccc1N=Nc1ccc(NC(=O)c2ccnn2C)c(C)c1	> 0.3 µM

Q: Give measured IC50 for O=C(c1cc(Cc2n[nH]c(=O)c3ccccc23)ccc1F)N1CCN(C(=O)C2CC2)CC1 + Cc1ccccc1N=Nc1ccc(NC(=O)c2ccnn2C)c(C)c1 (292921-168-R-J2-PDC complex spheroid growth).
Result: > 10 µM
